All values here come from patent US20120028995A1.

molecular target: purified, recombinant human DPIV (Homo sapiens); construct: made in house; host or cells: Sf9 insect cells; assay: Inhibition of enzymatic activity of DPIV (fluorogenic substrate hydrolysis); format: biochemical; conditions: highest test item concentration 25 μM
Sequence (P27487 whole entry): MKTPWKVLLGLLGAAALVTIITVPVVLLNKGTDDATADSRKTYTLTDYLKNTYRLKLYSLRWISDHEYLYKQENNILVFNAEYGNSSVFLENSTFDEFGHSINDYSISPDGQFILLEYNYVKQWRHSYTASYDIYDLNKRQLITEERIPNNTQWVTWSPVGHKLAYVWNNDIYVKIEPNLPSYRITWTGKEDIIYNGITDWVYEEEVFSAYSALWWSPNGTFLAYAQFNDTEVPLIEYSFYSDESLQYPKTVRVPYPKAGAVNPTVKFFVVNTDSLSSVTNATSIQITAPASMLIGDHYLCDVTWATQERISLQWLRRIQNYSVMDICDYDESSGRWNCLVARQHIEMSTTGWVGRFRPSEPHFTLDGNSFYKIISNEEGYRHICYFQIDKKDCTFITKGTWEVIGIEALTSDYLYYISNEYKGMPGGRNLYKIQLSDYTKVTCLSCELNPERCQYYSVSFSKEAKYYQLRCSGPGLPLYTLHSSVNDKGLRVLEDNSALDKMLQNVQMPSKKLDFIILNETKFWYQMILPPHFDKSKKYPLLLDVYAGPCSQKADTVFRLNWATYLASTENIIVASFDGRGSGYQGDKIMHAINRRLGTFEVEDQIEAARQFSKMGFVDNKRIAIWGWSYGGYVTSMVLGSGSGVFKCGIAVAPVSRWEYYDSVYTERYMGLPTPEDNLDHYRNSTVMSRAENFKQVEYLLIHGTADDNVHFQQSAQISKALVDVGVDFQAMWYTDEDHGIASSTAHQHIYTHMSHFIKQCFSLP
PROPERTY MEASURED: meas. IC50 (DPIV)

Use the examples below as a reference point.
[[record]]
compound = "CC(C)(CNC(=O)CC(Cc1cc(F)ccc1F)NC(=O)OC(C)(C)C)CNC(=O)C(O)C(COCc1ccccc1)NC(=O)OC(C)(C)C (stereo not shown) [Compound C19.004]"
value_observed = "no in- hibition"

[[record]]
compound = "CC(C)(C)OC(=O)NC(CCCCNC(=O)c1cccc(NC(=O)C(O)C(Cc2ccccc2)NC(=O)OC(C)(C)C)c1)C(=O)N1CCSC1 (stereo not shown) [Compound C21.004]"
value_observed = "no in- hibition"

[[record]]
compound = "NC(CNC(=O)CCCNC(=O)C(O)C(N)Cc1ccccc1)Cc1cc(F)ccc1F (stereo not shown) [Compound C26.005]"
value_observed = "no in- hibition"

[[record]]
compound = "CCCC(=O)NC(CC(=O)NCC(C)(C)CNC(=O)C(O)C(COCc1ccccc1)NC(=O)CCC)Cc1cc(F)ccc1F (stereo not shown) [Compound C19.017]"
value_observed = "no in- hibition"

[[record]]
compound = "CCCCCC(=O)NC(CC(=O)NCC(C)(C)CNC(=O)C(O)C(COCc1ccc(OC)cc1)NC(=O)CCCCC)Cc1cc(F)ccc1F (stereo not shown) [Compound C19.013]"
value_observed = "no in- hibition"

[[record]]
compound = "CC(=O)SC(C(=O)NCCCCC(NC(=O)OC(C)(C)C)C(=O)N1CCSC1)C(Cc1ccccc1)NC(=O)OC(C)(C)C (stereo not shown) [Compound C22.001]"
value_observed = "no in- hibition"

[[record]]
compound = "NC(Cc1cc(F)ccc1F)CS(=O)(=O)NCCCCNC(=O)C(O)C(N)Cc1ccccc1 (stereo not shown) [Compound C26.007]"
value_observed = "no in- hibition"

[[record]]
compound = "CC(C)(CNC(=O)CC(Cc1cc(F)ccc1F)NC(=O)OC(C)(C)C)CNC(=O)C(O)C(COCc1ccccc1)NC(=O)OC(C)(C)C (stereo not shown) [Compound C19.024]"
value_observed = "No in- hibition"


Query: Given the compound CCCCCCCC(=O)NC(CC(=O)NCC(C)(C)CNC(=O)C(O)C(COCc1ccccc1)NC(=O)CCCCCCC)Cc1cc(F)ccc1F (stereo not shown) [Compound C19.010] , what is its reported meas. IC50 (DPIV)?
Response: no in- hibition

Query: Given the compound CC(C)(CNC(=O)CC(Cc1cc(F)ccc1F)NC(=O)C(C)(C)C)CNC(=O)C(O)C(COCc1ccccc1)NC(=O)C(C)(C)C (stereo not shown) [Compound C19.016] , what is its reported meas. IC50 (DPIV)?
Response: no in- hibition

Query: Given the compound CC(C)(CNC(=O)CC(Cc1cc(F)ccc1F)NC(=O)OCc1ccccc1)CNC(=O)C(O)C(COCc1ccccc1)NC(=O)OC(C)(C)C (stereo not shown) [Compound C19.027] , what is its reported meas. IC50 (DPIV)?
Response: No in- hibition

Query: Given the compound CC(C)(CNC(=O)CC(Cc1cc(F)ccc1F)NC(=O)OC(C)(C)C)CNC(=O)C(O)C(COCc1ccccc1)NC(=O)OC(C)(C)C (stereo not shown) [Compound C19.023] , what is its reported meas. IC50 (DPIV)?
Response: No in- hibition

Query: Given the compound CC(C)(C)OC(=O)NC(CNC(=O)c1cccc(NC(=O)C(O)C(N)Cc2ccc(-c3cccnc3)cc2)c1)Cc1cc(F)ccc1F (stereo not shown) [Compound C-125] , what is its reported meas. IC50 (DPIV)?
Response: no in- hibition
